As shown below, each of these compounds has a reported pIC50 value.
target: Acetylcholinesterase (Homo sapiens, UniProt P22303)
Sequence (P22303 whole entry): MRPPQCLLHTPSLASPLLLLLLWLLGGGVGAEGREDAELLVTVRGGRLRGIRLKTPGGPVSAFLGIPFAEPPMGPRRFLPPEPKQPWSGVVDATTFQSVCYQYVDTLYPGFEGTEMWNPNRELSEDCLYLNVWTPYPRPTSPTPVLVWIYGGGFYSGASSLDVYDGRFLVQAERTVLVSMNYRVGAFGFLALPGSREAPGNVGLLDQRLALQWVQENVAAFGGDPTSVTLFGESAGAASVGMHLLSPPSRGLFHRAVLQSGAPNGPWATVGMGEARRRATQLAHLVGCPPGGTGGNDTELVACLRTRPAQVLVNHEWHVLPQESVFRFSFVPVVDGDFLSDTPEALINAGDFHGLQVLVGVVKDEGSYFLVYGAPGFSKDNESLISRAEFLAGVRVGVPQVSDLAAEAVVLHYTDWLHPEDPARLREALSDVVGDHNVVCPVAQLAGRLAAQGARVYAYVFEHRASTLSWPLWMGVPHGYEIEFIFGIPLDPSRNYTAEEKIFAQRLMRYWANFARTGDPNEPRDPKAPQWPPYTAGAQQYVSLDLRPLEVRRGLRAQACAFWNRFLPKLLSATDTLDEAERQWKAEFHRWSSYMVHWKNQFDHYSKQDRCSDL
Just the number, please; pIC50 means minus log10 of the concentration in mol/L.

# count of solved cases: 10
CCN(CCCCCC(=O)N1CCC(CCC2CCN(C(=O)CCCCCN(CC)Cc3ccccc3OC)CC2)CC1)Cc1ccccc1OC | 8.13
CCN(CCCCCC(=O)Nc1ccc(CCc2ccc(NC(=O)CCCCCN(CC)Cc3ccccc3OC)cc2)cc1)Cc1ccccc1OC | 6.77
CCN(CCCCCC(=O)Nc1ccc(-c2ccc(NC(=O)CCCCCN(CC)Cc3ccccc3OC)cc2)cc1)Cc1ccccc1OC | 7.44
CCN(CCCCCCNc1ccc(Cc2ccc(NCCCCCCN(CC)Cc3ccccc3OC)cc2)cc1)Cc1ccccc1OC | 5.97
CCN(CCCCCC(=O)N1CCC(C2CCN(C(=O)CCCCCN(CC)Cc3ccccc3OC)CC2)CC1)Cc1ccccc1OC | 8.48
CC[N+](C)(CCCCCC(=O)N1CCC(CCCC2CCN(C(=O)CCCCC[N+](C)(CC)Cc3ccccc3OC)CC2)CC1)Cc1ccccc1OC (stereo not drawn) | 8.24
CCN(CCCCCC(=O)N1CCC(CCCC2CCN(C(=O)CCCCCN(CC)Cc3ccccc3OC)CC2)CC1)Cc1ccccc1OC | 8.18
CCN(CCCCCCNc1ccc(CCc2ccc(NCCCCCCN(CC)Cc3ccccc3OC)cc2)cc1)Cc1ccccc1OC | 4.51
CCN(CCCCCC(=O)Nc1ccc(Cc2ccc(NC(=O)CCCCCN(CC)Cc3ccccc3OC)cc2)cc1)Cc1ccccc1OC | 7.20
CC[N+](C)(CCCCCC(=O)N1CCC(CCC2CCN(C(=O)CCCCC[N+](C)(CC)Cc3ccccc3OC)CC2)CC1)Cc1ccccc1OC (stereo not drawn) | 8.24

Task item: pIC50 for `CCN(CCCCCCNc1ccc(-c2ccc(NCCCCCCN(CC)Cc3ccccc3OC)cc2)cc1)Cc1ccccc1OC` ?
Reply: 5.58

Task item: Input `CCN(CCCCCC(=O)N1CCC(CC2CCN(C(=O)CCCCCN(CC)Cc3ccccc3OC)CC2)CC1)Cc1ccccc1OC`
Reply: 8.48

Task item: Input CC[N+](C)(CCCCCC(=O)Nc1ccc(CCc2ccc(NC(=O)CCCCC[N+](C)(CC)Cc3ccccc3OC)cc2)cc1)Cc1ccccc1OC (stereo not drawn)
Reply: 6.92
